Experiment: Particle size of nucleic acid lipid particles (FVII-siRNA)
Format: physicochemical
readout label: Particle size (nm)

| molecule | Particle size (nm) |
| --- | --- |
| CCCCCCCCCCC(CCCCCCCC)COC(=O)CCCC(CCCCCC)OC(=O)OCCN(CCN(CC)CC)C(C)C (stereo not drawn) | 74.2 |
| CCCCC/C=C\C/C=C\CCCCCCCCC(CCCCCCCC/C=C\C/C=C\CCCCC)OC(=O)OCCN(C)CCN(CC)CC | 75.4 |
| CCCCCCCCCC(CCCCCCCCC)COC(=O)CCCC(CCCCCC)OC(=O)OCCN(CCN(CC)CC)C(C)C (stereo not drawn) | 73.4 |
| CCCCCCCCCCC(CCCCCCCC)COC(=O)CCCCCCCCC(CCCCCC)OC(=O)OCCN(CCN(CC)CC)C(C)C (stereo not drawn) | 65.8 |
| CCCCCCCCC(CCCCCC)COC(=O)CCCCCCCCC(CCCCCC)OC(=O)OCCN(CCN(CC)CC)C(C)C (stereo not drawn) | 77.3 |
| CCCCCCCC/C=C\CCCCCCCC(=O)OCCCCCCC(CCCCCCOC(=O)CCCCCCC/C=C\CCCCCCCC)OC(=O)OCCN(CCCCCC)CCN(C)C | 75.3 |
| CCCCC/C=C\C/C=C\CCCCCCCCC(CCCCCCCC/C=C\C/C=C\CCCCC)OC(=O)OCCN(CCCC)CCN(C)C | 67.9 |
| CCCCC/C=C\C/C=C\CCCCCCCCC(CCCCCCCC/C=C\C/C=C\CCCCC)OC(=O)OCCCN(C)C [Comparative Example 8, reference compound] | 63.4 |
| CCCCCCCCC(=O)OCCN(CCOC(=O)OC(CCCCCC)CCCCCCCCC(=O)OCCC(CCCCC)CCCCC)CCN(CC)CC (stereo not drawn) | 74.2 |
| CCCCCCCCCCCC(=O)OCCN(CCOC(=O)OC(CCCCCC)CCCC(=O)OCC(CCCC)CCCCCC)CCN(CC)CC (stereo not drawn) | 66.4 |
| CCCCCCCOC(=O)CCN(CCOC(=O)OC(CCCCCC)CCCCCCCCC(=O)OCC(CCCC)CCCCCC)CCN(CC)CC (stereo not drawn) | 80.7 |
| CCCCCCC(CCCCCC)C(=O)OCCCCCCC(CCCCCCOC(=O)C(CCCCCC)CCCCCC)OC(=O)OCCN(CC)CCN(CC)CC | 81.2 |

* * *

Tested on: Factor VII (FVII) protein
Test: Measurement of Factor VII (FVII) protein in mouse plasma after FVII-siRNA lipid particles
Type: in vivo, C57BL6/J mice
Settings: 0.1 mg/kg caudal vein, plasma 24 hours after administration, PBS group = 100%
readout label: Relative amount of FVII protein (%)
Entry rule: numbers only, all in %.

Please review the entries below; each comes with its answer.
| molecule | Relative amount of FVII protein (%) |
| --- | --- |
| CCCCCCCCC(CCCCCC)COC(=O)CCCCCCCCC(CCCCCC)OC(=O)OCCN(CCOC(=O)CCCCC)CCN(CC)CC (centres unmarked) | 2 |
| CCCCCCCCC(CCCCCCCC)C(=O)OCCCCCCC(CCCCCCOC(=O)C(CCCCCCCC)CCCCCCCC)OC(=O)OCCN(CC)CCN(CC)CC | 4 |
| CCCCCCCCC(CCCCCCCC)CC(=O)OCCCCCCC(CCCCCCOC(=O)CC(CCCCCCCC)CCCCCCCC)OC(=O)OCCN(CC)CCN(CC)CC | 11 |

Factor VII (FVII) protein data for CCCCC/C=C\C/C=C\CCCCCCCCC(CCCCCCCC/C=C\C/C=C\CCCCC)OC(=O)OCCN(CCC)CCN(C)C(C)C ; its Relative amount of FVII protein (%): 10

Factor VII (FVII) protein data for CCCC/C=C\CCCCCCCC(=O)OCCCCCCC(CCCCCCOC(=O)CCCCCCC/C=C\CCCC)OC(=O)OCCN(CC)CCN(CC)CC ; its Relative amount of FVII protein (%): 11

Factor VII (FVII) protein data for CCCCC/C=C\C/C=C\CCCCCCCCC(CCCCCCCC/C=C\C/C=C\CCCCC)OC(=O)OCCCN(C)C [Comparative Example 8, reference compound] ; its Relative amount of FVII protein (%): 58

Factor VII (FVII) protein data for CCCCCCC(CCCCCC)CC(=O)OCCCCCCC(CCCCCCOC(=O)CC(CCCCCC)CCCCCC)OC(=O)OCCN(CC)CCN(CC)CC ; its Relative amount of FVII protein (%): 5

Factor VII (FVII) protein data for CCN(CC)CCN(CC)CCOC(=O)OC(CCCCCCOC(=O)C(CCC(C)CC(C)(C)C)C(C)CC(C)(C)C)CCCCCCOC(=O)C(CCC(C)CC(C)(C)C)C(C)CC(C)(C)C (centres unmarked) ; its Relative amount of FVII protein (%): 10

Factor VII (FVII) protein data for CCCCCCCCCCC(CCCCCCCC)COC(=O)CCCCCCCCC(CCCCCC)OC(=O)OCCN(CCN(CC)CC)C(C)C (centres unmarked) ; its Relative amount of FVII protein (%): 10

Factor VII (FVII) protein data for CCCCC/C=C\C/C=C\CCCCCCCCC(CCCCCCCC/C=C\C/C=C\CCCCC)OC(=O)OCCN(CCCC)CCN(C)C ; its Relative amount of FVII protein (%): 16

Factor VII (FVII) protein data for CCCCCCCCC(CCCCCC)COC(=O)CCCCCCCC(CCCCCC)OC(=O)OCCN(CCN(CC)CC)C(C)C (centres unmarked) ; its Relative amount of FVII protein (%): 12

Factor VII (FVII) protein data for CCCCCCCCCCC(CCCCCCCC)COC(=O)CCCC(CCCCCC)OC(=O)OCCN(CCN(CC)CC)C(C)C (centres unmarked) ; its Relative amount of FVII protein (%): 3

Factor VII (FVII) protein data for CCCCCCCCCCCCC(CCCCCCCCCC)COC(=O)CCCC(CCCCCC)OC(=O)OCCN(CCN(CC)CC)C(C)C (centres unmarked) ; its Relative amount of FVII protein (%): 4

Factor VII (FVII) protein data for CCCCCCCC/C=C\CCCCCCCC(=O)OCCN(CCCN(CC)CC)CCOC(=O)OC(CCCCCC)CCCCCCCCC(=O)OCC(CCCC)CCCCCC (centres unmarked) ; its Relative amount of FVII protein (%): 7

Factor VII (FVII) protein data for CCCCCCCCC(CCCCCC)C(=O)OCCCCCC(CCCCCOC(=O)C(CCCCCC)CCCCCCCC)OC(=O)OCCN(CC)CCN(CC)CC (centres unmarked) ; its Relative amount of FVII protein (%): 4

Factor VII (FVII) protein data for CCCCCCCC(=O)OCCN(CCOC(=O)OC(CCCCCC)CCCCCCCCC(=O)OCC(CCCC)CCCCCC)CCN(CC)CC (centres unmarked) ; its Relative amount of FVII protein (%): 2

Factor VII (FVII) protein data for CCCCCC/C=C\CCCCCCCC(=O)OCCCCCCC(CCCCCCOC(=O)CCCCCCC/C=C\CCCCCC)OC(=O)OCCN(CC)CCN(CC)CC ; its Relative amount of FVII protein (%): 18

Factor VII (FVII) protein data for CCCCCCCCCCCC(=O)OCCN(CCOC(=O)OC(CCCCCC)CCCC(=O)OCC(CCCC)CCCCCC)CCN(CC)CC (centres unmarked) ; its Relative amount of FVII protein (%): 2

Factor VII (FVII) protein data for CCCCCCC(CCCCCC)C(=O)OCCCCCCC(CCCCCCOC(=O)C(CCCCCC)CCCCCC)OC(=O)OCCN(CC)CCN(CC)CC ; its Relative amount of FVII protein (%): 3
